Measured flash point accompanies every entry in the list below.
Reply with just the number (in °C).

Identify measured flash point associated with `CCCCCCCCCCCCN` 178.00

Further cases:
For the molecule CCC(CC)OC(C)=O [pentan-3-yl acetate] , give its reported flash point. 33.00

Item `CC(C=O)=Cc1ccccc1` : provide flash point 79.00

Report measured flash point; entry is `Cc1ccc([N+](=O)[O-])cc1.N.Nc1cccc([N+](=O)[O-])c1.Nc1ccccc1[N+](=O)[O-]` 154.00

Tell us which flash point value is on record for `CC(C)C=O` -40.00

Specify measured flash point for `O=C1CCCCCO1` . 127.00

Give recorded flash point. `CC(C)Cl` -32.00

Specify measured flash point for CCCCCCCCCCCCCCCCCC(=O)OCCCC [butyl octadecanoate] . 160.00

###

READOUT_NAME: flash point

// worked examples, flash point included
Consider the compound CCC(C)C(C)C(C)(C)C (stereo unspecified) [2,2,3,4-Tetramethylhexane] and give its recorded flash point. 31 °C

State its flash point for this compound: CCC(C)(C)CC(C)(C)C [2,2,4,4-Tetramethylhexane] 31 °C

Look up and report measured flash point for this entry: CCCCCC(C)(C)C [2,2-Dimethylheptane] 24 °C

Supply reported flash point belonging to this compound: CC(C)CC(C)CC(C)C [2,4,6-Trimethylheptane] 31 °C

Identify measured flash point corresponding to CC(C)C(C)C(C)C(C)C (stereo unspecified) [2,3,4,5-Tetramethylhexane] 31 °C

More entries:
Fill in reported flash point for this entry: CCCCC(C)(C)C [2,2-Dimethylhexane] -4 °C

###

The entries below come with measured flash point values attached.
Record the result as a number with its unit.

Provide only the value of recorded flash point for `CCCCCC(C)(C)S` 46.00 °C

Report flash point for `C1=Cc2cccc3cccc1c23` 122.00 °C

###

Listing: flash point of selected compounds
Respond numerically; units are °C and should not be typed.

Answer with the recorded flash point of `Cc1cccc(C)c1C` only. 51

Determine from records and report flash point for C[C@H]1CCC[C@H](C)C1 (relative stereo) [trans-1,3-dimethylcyclohexane] 8

Determine from records and report flash point for `Cn1cccc1` 15

Dear colleague, please send me the reported flash point for CCCCCCC(O)CC (stereo unspecified) when you can. 79

Tell me its flash point given ICc1ccccc1 [benzyliodide] as the entry. 97

Continuing:
Please supply the value of reported flash point for the item CCCCCCC(=O)OC(=O)CCCCCC [heptanoicanhydride] 130

State, in one line, measured flash point of `CC(C)(N)CO` 68

// fetch flash point given entry CCCC(I)CC (stereo unspecified) 55

Write down flash point measured for item `CC(=O)C1CC1` 13

Provide measured flash point value, entry: CC(=O)OC(C)=O [aceticanhydride] 49

For the compound `CCCBr` , give its measured flash point value. -4

###

1 means recorded flash point is 20 °C or above; 0 means it is below 20 °C.

A selection of reference data follows.
Answer whether flash point of C=C(C)CC [2-methyl-1-butene] is greater than or equal to 20 °C. 0

Hi team, for CC(C)C1CCCC1 [isopropylcyclopentane] , is the recorded flash point at or above 20 °C? 0

Can C/C=C/CCC [trans-2-hexene] be said to have flash point at or above 20 °C? 0

More entries:
Determine whether this compound has flash point no lower than 20 °C: CCC(C(C)C)C(C)C [3-ethyl-2,4-dimethylpentane] 0

Answer whether flash point of CC=C(CC)CC [3-ethyl-2-pentene] is greater than or equal to 20 °C. 0

Is flash point for CCCCCCC(C)(C)C [2,2-dimethyloctane] at or above 20 °C? 1
